# ASSAY PROCEDURE: Plasma pharmacokinetics of liposome-entrapped and free topotecan in rats
# Assay type: in vivo
# MEASUREMENT CONDITIONS: rat, plasma, iv, Dosage = 2 mg/kg
QUANTITY NAME: AUC

CC[C@@]1(O)C(=O)OCc2c1cc1n(c2=O)Cc2cc3c(CN(C)C)c(O)ccc3nc2-1 [free topotecan] = 570 ng·h/mL

----------
# ASSAY PROCEDURE: Plasma pharmacokinetics of liposome-entrapped and free topotecan in rats
# Type: in vivo
# MEASUREMENT CONDITIONS: rat, plasma, iv, Dosage = 5 mg/kg
QUANTITY NAME: Cmax

CC[C@@]1(O)C(=O)OCc2c1cc1n(c2=O)Cc2cc3c(CN(C)C)c(O)ccc3nc2-1 [free topotecan] = 8230 ng/mL

----------
# ASSAY PROCEDURE: Plasma pharmacokinetics of liposome-entrapped and free topotecan in rats
# Format: in vivo
# MEASUREMENT CONDITIONS: rat, plasma, iv, Dosage = 5 mg/kg
QUANTITY NAME: clearance (mL/min)

CC[C@@]1(O)C(=O)OCc2c1cc1n(c2=O)Cc2cc3c(CN(C)C)c(O)ccc3nc2-1 [free topotecan] = 13.7

----------
# ASSAY PROCEDURE: Plasma pharmacokinetics of liposome-entrapped and free topotecan in rats
# Assay type: in vivo
# MEASUREMENT CONDITIONS: rat, plasma, iv, Dosage = 2 mg/kg, read-out: T ½ (converted)
QUANTITY NAME: half-life (min)

CC[C@@]1(O)C(=O)OCc2c1cc1n(c2=O)Cc2cc3c(CN(C)C)c(O)ccc3nc2-1 [free topotecan] = 12

----------
# ASSAY PROCEDURE: Plasma pharmacokinetics of liposome-entrapped and free topotecan in rats
# Assay type: in vivo
# MEASUREMENT CONDITIONS: rat, plasma, iv, Dosage = 2 mg/kg
QUANTITY NAME: clearance (mL/min)

CC[C@@]1(O)C(=O)OCc2c1cc1n(c2=O)Cc2cc3c(CN(C)C)c(O)ccc3nc2-1 [free topotecan] = 14.8

src = patent US7279179B2
